# System: HepG2
# method.notes: Antiproliferative activity against human HepG2 cells assessed as cell viability incubated for 72 hrs by MTT assay
# Type: functional, cell-based
# condition.summary: HepG2, 72 h
measured.property: IC50 (µM)
Please give a number only; it is taken to be in µM.

Suppose we examine the compound `CCc1nnc2c(Nc3ccc(C(=O)/C=C/c4cc(OC)c(OC)c(OC)c4)cc3)nc3ccccc3n12` ; what IC50 value has been reported?
8.58

* * *

# System: PC-3
# method.notes: Anticancer activity against human PC-3 cells assessed as cell growth inhibition
# Type: functional, cell-based
measured.property: pIC50
pIC50 is defined as minus the log10 of a concentration measured in mol/L.

Reported pIC50, molecule `O=C(CSc1nnc2n(Cc3ccccc3)c(=O)c3c4c(sc3n12)CCCC4)N1CCN(c2ccccc2)CC1` : ____
5.26

The values you see were collected from ChEMBL document CHEMBL5244255.
